Please provide measured Peptide IC50 for the entries that follow.
# targetSystem: CGRP1 receptor (CRLR/RAMP1 complex) of human neuroblastoma SK-N-MC cells (human, UniProt Q16602 23-461; O60894 27-148)
# Sequence (Q16602 23-461, chain 1 of 2): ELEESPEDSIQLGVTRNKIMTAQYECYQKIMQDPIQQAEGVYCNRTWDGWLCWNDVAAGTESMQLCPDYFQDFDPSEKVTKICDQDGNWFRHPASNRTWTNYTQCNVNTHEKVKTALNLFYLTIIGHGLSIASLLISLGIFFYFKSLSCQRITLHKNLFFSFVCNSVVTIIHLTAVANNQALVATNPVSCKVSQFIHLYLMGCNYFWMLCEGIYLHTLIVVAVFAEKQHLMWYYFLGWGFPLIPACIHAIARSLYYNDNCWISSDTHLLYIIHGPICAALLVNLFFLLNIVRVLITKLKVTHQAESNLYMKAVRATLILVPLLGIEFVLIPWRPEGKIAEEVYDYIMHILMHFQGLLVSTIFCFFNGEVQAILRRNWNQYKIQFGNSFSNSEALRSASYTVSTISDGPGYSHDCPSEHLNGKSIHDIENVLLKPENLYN
# Sequence (O60894 27-148, chain 2 of 2): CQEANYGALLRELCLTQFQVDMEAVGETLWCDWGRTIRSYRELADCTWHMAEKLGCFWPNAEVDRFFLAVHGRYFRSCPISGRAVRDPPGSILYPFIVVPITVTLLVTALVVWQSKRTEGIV
# methodSummary: cell-based or functional assay
Bridge positions count the residues as written; N and C are the ends. Square brackets hold non-standard residues; d marks the D form. Oic = O=C(O)[C@@H]1C[C@@H]2CCCC[C@@H]2N1; hArg = N=C(N)NCCCC[C@H](N)C(=O)O; Tic = O=C(O)[C@@H]1Cc2ccccc2CN1; Cit = NC(=O)NCCC[C@H](N)C(=O)O; Aze = O=C(O)[C@@H]1CCN1
The response must be a number in nM with no trailing unit.

Given the entry WVTHRLAGLLSXSGGVVRKNFVPTDVGPFAF (Ac-WVTHRLAGLLS[Cit]SGGVVRKNFVPTDVGPFAF-NH2) [SEQ ID NO 862] , report its measured Peptide IC50. 0.58

Which Peptide IC50 is listed for WVTHRLAGLLSRSGGVVRKNFVPTDVGPFAX (Ac-WVTHRLAGLLSRSGGVVRKNFVPTDVGPFA[2-Nal]-NH2) [SEQ ID NO 913] ? 1.72

Fill in: Peptide IC50 of Ac-WVTH[Cit]LAGLAS[Cit]SGGVVRKNFVPTDVGPFAF-NH2 [SEQ ID NO 870] is ___ 16.1

So what's the measured Peptide IC50 for this one? Ac-WVTH[Cit]LAGELS[Cit]KGGVV[hArg]KNFVPTDVG[Oic]FAF-NH2 [SEQ ID NO 943] 1.45

May I ask what Peptide IC50 has been recorded for WVTHXLAGLLSXSGGVVXKNFVXTDVGPXAX (Ac-WVTH[Cit]LAGLLS[Cit]SGGVV[hArg]KNFV[Oic]TDVGP[1-Nal]A[2-Nal]-NH2) [SEQ ID NO 949] ? 2.73

Returns the measured Peptide IC50 for the input binder. Input: Ac-WVTHRLAGLLPRSGGVVRKNFVPTDVGPFAF-NH2 [SEQ ID NO 858] 1.3

Please give the measured Peptide IC50 for this binder: Ac-WVEH[hArg]LKGLLS[Cit]SG[Aze]VVRKNFVPTDVGPFAF-NH2 (lactam 3-7) [SEQ ID NO 899] 1.62

Consider the binder shown here: Ac-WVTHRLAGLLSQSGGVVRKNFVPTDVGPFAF-NH2 [SEQ ID NO 856] What is its recorded Peptide IC50? 0.47

What value of measured Peptide IC50 is listed for WVTHXLAGLLSXSGGVVRKNXVPTDVGPFAX (Ac-WVTH[Cit]LAGLLS[Cit]SGGVVRKN[pI-Phe]VPTDVGPFA[pI-Phe]-NH2) [SEQ ID NO 922] ? 2.21

Would you kindly share the measured Peptide IC50 for WVTHXLAGLLSXSGGVVXKNFVXTDVGPFAX (Ac-WVTH[Cit]LAGLLS[Cit]SGGVV[hArg]KNFV[Oic]TDVGPFA[2-Nal]-NH2) [SEQ ID NO 951] ? 3.22

Value lookup for Peptide IC50; key = Ac-WVTH[Cit]LAGLLS[Cit]SGGVVRKNFVPTDVG[Tic]FAF-NH2 [SEQ ID NO 956] 3.02

Which measured Peptide IC50 value corresponds to Ac-WVTHRLAGLLSRSGGVVRKNFVPTDVGPKAF-NH2 [SEQ ID NO 917] ? 1
